Collected literature values of pIC50 measured for Hematopoietic prostaglandin D synthase (Homo sapiens).
Reminder that pIC50 is minus the log10 of a molar concentration.

Use these answered entries as a reference point.
> print(dat)
                                   compound  recorded.number
1  NC(=O)C(Cc1c[nH]c2ccccc12)NC(=O)c1ccc(-c2cccc(O)c2)s1 (configuration not stated)             5.68
2  O=C(Nc1ccc(N2CCC(C(=O)N3CCOCC3)CC2)cc1)c1cnc(Oc2ccccc2)nc1             6.77
3  NC(=O)C(Cc1ccccc1)NC(=O)c1ccc(-c2cccc(O)c2)cc1O (configuration not stated)             4.61
4  Cn1cccc1C(=O)N1CCN(C(=O)Nc2ccc(N3CCC(C(=O)NCc4cccnc4)CC3)cc2)CC1             7.22
5                      O=C(c1ccccc1)c1cccs1             5.04
6  CC(C)(CO)NS(=O)(=O)c1cccc(CNC(=O)c2cnc(-c3cccc(F)c3)nc2)c1             7.64

# ---- query compound ----
Fill in the blank: the reported pIC50 of Cn1cccc1C(=O)N1CCN(C(=O)Nc2ccc(N3CCC(CCn4cncn4)C3)cc2)CC1 (configuration not stated) is ____.
7.17

====

Literature roundup of Hematopoietic prostaglandin D synthase (Homo sapiens, UniProt O60760) data, read-out pIC50.
pIC50 (log units): -log10 of the concentration in mol/L.

> print(dat)
                                   molecule  outcome.measure  recorded.number
1                  COc1ccc(C(=O)c2cccs2)cc1            pIC50             3.98
2  Cc1nc(-c2ncccn2)ncc1C(=O)Nn1ccc2c(C(F)(F)F)cccc21            pIC50             8.10
3  Cn1cccc1C(=O)N1CCN(C(=O)Nc2ccc(N3CCC(C(=O)N4CCCCC4)CC3)cc2)CC1            pIC50             7.49

Lab note: need pIC50 for NC(=O)C(Cc1ccccc1)NC(=O)NC(=O)c1ccc(-c2cccc(O)c2)s1 (centres undefined) on Hematopoietic prostaglandin D synthase (Homo sapiens, UniProt O60760), anyone have it?
5.43

Lab note: need pIC50 for O=C(NCCN1CCOCC1)c1ccc(N2CCC(NC(=O)N3CCN(C(=O)c4ccccc4)CC3)CC2)cc1 on Hematopoietic prostaglandin D synthase (Homo sapiens, UniProt O60760), anyone have it?
6.60

Request body: readout pIC50, system Hematopoietic prostaglandin D synthase (Homo sapiens, UniProt O60760), query CC(C)CC(NC(=O)c1ccc(-c2cccc(O)c2)s1)C(N)=O (centres undefined) . Return the value.
5.15

Quick check: pIC50 on Hematopoietic prostaglandin D synthase (Homo sapiens, UniProt O60760), item Cc1nc(C)n(CCC2CCN(c3ccc(NC(=O)N4CCN(C(=O)c5cccn5C)CC4)cc3)CC2)n1 ?
7.07

Please state recorded pIC50 (tested on Hematopoietic prostaglandin D synthase (Homo sapiens, UniProt O60760)) of NC(=O)C(Cc1ccccc1)NC(=O)c1ccc(-c2cccc(O)c2)cc1 (centres undefined)
Sequence (O60760 whole entry): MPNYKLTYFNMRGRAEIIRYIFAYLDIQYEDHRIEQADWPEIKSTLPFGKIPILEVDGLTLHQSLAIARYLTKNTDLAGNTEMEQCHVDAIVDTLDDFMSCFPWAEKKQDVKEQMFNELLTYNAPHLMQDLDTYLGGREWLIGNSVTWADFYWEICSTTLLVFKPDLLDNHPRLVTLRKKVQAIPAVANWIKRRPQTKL
5.34

Value wanted: pIC50 (Hematopoietic prostaglandin D synthase (Homo sapiens, UniProt O60760)) of entry Nc1cccc(-c2ccc(C(=O)NC(c3ccccc3)c3ccccc3)s2)c1
5.72

Give Hematopoietic prostaglandin D synthase (Homo sapiens, UniProt O60760) pIC50 for Cn1cccc1C(=O)N1CCN(C(=O)Nc2ccc(N3CCC(CCN4CCOCC4)CC3)cc2)CC1
7.37

# query: pIC50 | item NC(=O)C(Cc1ccc(O)cc1)NC(=O)NC(=O)c1ccc(-c2cccc(O)c2)s1 (centres undefined) | system: Hematopoietic prostaglandin D synthase (Homo sapiens, UniProt O60760)
5.89

I'm curious: which pIC50 was measured for NC(=O)CNC(=O)c1ccc(-c2cccc(O)c2)s1 tested on Hematopoietic prostaglandin D synthase (Homo sapiens, UniProt O60760)?
5.10

Provide the documented pIC50 with Hematopoietic prostaglandin D synthase (Homo sapiens, UniProt O60760) as the system for Nc1c(S(=O)(=O)O)cc(Nc2ccc(Nc3nc(Cl)nc(Nc4ccccc4S(=O)(=O)O)n3)c(S(=O)(=O)O)c2)c2c1C(=O)c1ccccc1C2=O
6.70
